- Tested on: SKOV3
- PROTOCOL_DETAILS: Primary qHTS to identify gynecologic anti-cancer compounds using libraries of approved drugs and bioactive compounds (AID 1345084); note: nearly all actives have a fitted effect of over 55% in size
- TEST_CONTEXT: Gynecologic cancer cell panel viability, ATPlite luminescence, 48 h; series mostly up to 57.5 µM
Results filed as inconclusive are left out. Calls of active or inactive are those of the source. Calls come from the whole dose curve; as a rule, active = well fitted cell-killing curve with a large enough effect; inconclusive = small, poorly fitted or top-dose-only effect, or effect the other way; inactive = flat fitted curve, though single readings scatter.
Answer with one of the outcomes 1.0 = active, 0.0 = inactive

Enquiry: What outcome does the record of this test show for CNC(=S)NS(=O)(=O)c1cc(CCNC(=O)c2cc(Cl)ccc2OC)ccc1OC ?
Return: 0.0

Enquiry: # outcome recorded in this test, key = O=C(O)Cc1cn(C2OCC(O)C(O)C2O[C@@H]2O[C@H](CO)[C@@H](O)[C@H](O)[C@H]2O)c2ccccc12 (some centres not stated)
Return: 0.0

Enquiry: // return assay outcome for Oc1ccc2nc(CN3CCC(Cc4ccccc4F)CC3)[nH]c2c1
Return: 0.0

Enquiry: Dear colleague, could you share the recorded outcome for O=C(C(c1ccccc1)c1ccccc1)N1CCN(CC(O)COc2cccc3ncccc23)CC1 (configuration not stated) when you have a moment?
Return: 0.0

Enquiry: What outcome does the record of this test show for C[C@@H]1CCN(C(=O)N2CCCC2)C[C@@H]1N(C)c1ncnc2[nH]ccc12 ?
Return: 0.0

Enquiry: Per the records of this test, what outcome belongs to CC(=O)O[C@@H]1c2c(C)coc2C(=O)[C@@]23O[C@@H]2CC[C@H](C)[C@@]13C ?
Return: 0.0

Enquiry: Hi, sorry to bother you, what did the test record for CC1CC(=O)C2=C(CCC3(O)C(O)c4c(O)cccc4C(=O)C23O)C1 (configuration not stated) ?
Return: 0.0

Enquiry: How did this test come out for COc1ccc(-c2cnc(-c3cccc4c3-c3ccccc3C4=O)o2)cc1 ?
Return: 1.0

Enquiry: // return assay outcome for C=C(CCC1=C(C)[C@H]2[C@H](CC3[C@@H]4CC=C5C[C@@H](O)C[C@@H](O)[C@]5(C)C4[C@H](O)C[C@@]32C)O1)CO[C@@H]1O[C@H](CO)[C@@H](O)[C@H](O)[C@H]1O (some centres not stated)
Return: 1.0

Enquiry: Recorded test outcome, item C=C1C(=O)O[C@H]2[C@H]1CC/C(C)=C/CC[C@@]1(C)O[C@@H]21
Return: 0.0

Enquiry: Outcome logged for Cc1c2cc(c(C(=O)O)c1C)OC1OC(C(O)C(O)C1O)C(O)C(O)C1OC(O2)C(O)C(O)C1O (configuration not stated) in this assay:
Return: 0.0

Enquiry: Per the assay record, what outcome was assigned to COc1cc(O)cc(C)c1C(=O)OC1C(CO)OC(OC2C(O)C(O)C(O)C(O)C2O)C(O)C1O (configuration not stated) ?
Return: 0.0

Enquiry: Recorded test call requested for Cc1ccc(NC(=O)C(=O)NC2CC(C)(C)NC(C)(C)C2)cc1
Return: 0.0

Enquiry: Check the results log: what was the call for C/C=C1\[C@H](O[C@@H]2O[C@H](CO)[C@@H](O)[C@H](O)[C@H]2O)OC=C(C(=O)OC)[C@H]1CC(=O)OC[C@H]1O[C@@H](OCCc2ccc(O)cc2)[C@H](O)[C@@H](O)[C@@H]1O ?
Return: 0.0

Enquiry: Could you check what this test reported for CCC(C)/C=C(C)/C=C/c1cc2c(cn1)C(=O)C(C)(OC(C)=O)C(O)=C2Cl (configuration not stated) ?
Return: 0.0

Enquiry: What classification did Cn1ncnc1COc1nn2c(-c3cc(F)ccc3F)nnc2cc1C(C)(C)C end up with in this test?
Return: 0.0

Enquiry: Which result was noted for this molecule in the test: COc1cc(C)c(C(=O)Oc2cc(C)c(C(=O)Oc3cc(C)c(C(=O)NC(C)C(=O)O)c(O)c3)c(O[C@@H]3O[C@H](CO)[C@@H](O)[C@H](O)[C@H]3OC(C)=O)c2)c(OC)c1 (some centres not stated)
Return: 0.0

Numbers sourced from PubChem BioAssay (NCATS).
